# System: MOLT-4 leukemia
# Test Protocol: NCI tumour cell line growth inhibition, 48 h
Measure: TGI

// solved cases for TGI follow
>>> result("C[C@H](N)C(=O)N1C[C@H](CCCB(O)O)[C@](N)(C(=O)O)C1")
"> 100 µM"
>>> result("CC(C)OC(=O)[C@@H](O)[C@H](CO)C1=CC([Si](C)(C)c2ccccc2)=CON1")
"> 100 µM"

Ask: # return TGI of "Cc1cc2cn3c4cccnc4[nH]c(=O)c3c2cc1C" (system: MOLT-4 leukemia)
Reply: 4.53 µM

Ask: Specify the recorded TGI for "CC(C)C(=O)/C=C/c1ccc(Cl)c(Cl)c1" , system: MOLT-4 leukemia.
Reply: > 100 µM

====

GI50 values by entry
# System: PC-3 prostate
# Test Protocol: NCI tumour cell line growth inhibition, 48 h

For orientation, consider the following solved cases.
>>> result("Oc1ccc(C#CCOc2ccccc2)cc1CNCCN(Cc1ccccn1)Cc1ccccn1")
"799 nM"
>>> result("OCC(O)C(O)C(O)/C=N/Nc1nc2ccccc2nc1-c1ccccc1 (stereo not given)")
"82400 nM"
>>> result("CNCCCNCCCN1C(=O)c2ccc3c4c(ccc(c24)C1=O)C(=O)N(CCCNCc1ccccc1OC)C3=O")
"1600 nM"
>>> result("CN(C)CCCn1c2nc(=O)[nH]c(=O)c-2nc2cc(Cl)c(Cl)cc21")
"2670 nM"

Now look at this entry.
Ask: Report measured GI50 on PC-3 prostate; entry: "O=C1NN(c2ccccc2)C(=O)/C1=C/c1ccc(Br)o1"
Reply: 6900 nM

====

# Test system: SK-MEL-28 melanoma
# Test Protocol: NCI tumour cell line growth inhibition, 48 h
Measure: GI50

Worked cases, GI50 given:
>>> result("N#Cc1c(N)nc(N2CCOCC2)c(C#N)c1-c1ccccc1Cl")
"33.6 µM"
>>> result("CN1CCN(c2ccc(C(=O)Nc3cc(-c4cccc(NS(=O)(=O)c5ccccc5)c4)[nH]n3)cc2)CC1")
"11.4 µM"
>>> result("C=C1C(=O)O[C@H]2[C@H]1CC/C(COC(=O)c1ccccc1)=C\\CC[C@@]1(C)O[C@@H]21")
"1.74 µM"
>>> result("COc1ccc2c(c1)/C(=C/c1cc(OC)c(OC)c(OC)c1)C(=O)N2C")
"3.58 µM"

Ask: Identify measured GI50 corresponding to "COc1ccc2c(c1)/C(=N/OC(C)=O)c1c-2c(=O)[nH]c2ccccc12"
Reply: 12.7 µM

====

# System: K-562 leukemia
# Test Protocol: NCI tumour cell line growth inhibition, 48 h
Measure: TGI

Ask: Return value of TGI for input "CC(C)Nc1ncc2cc(Oc3ccc(F)cc3F)c(=O)n(C)c2n1" , no commentary.
Reply: > 25 µM

Ask: Fill in reported TGI for this entry: COC(=O)c1cc(C(=CCC[C@H]2CC[C@@]3(C)C(CCC4C3CC[C@@]3(C)C4CC[C@@H]3C(C)CCCC(C)C)C2)c2cc(Cl)c(OC(=O)c3ccccc3)c(C(=O)OC)c2)cc(Cl)c1OC(=O)c1ccccc1 (stereo not given in full)
Reply: > 10 µM

Ask: Kindly indicate its recorded TGI. Item: "Cc1cccc(C)c1NC(=O)CCc1n[nH]c(=S)o1"
Reply: > 100 µM

Ask: Quote TGI reported for "COc1ccccc1NC(=O)O/N=C(/Cl)C(C)C" please.
Reply: 10.9 µM

Ask: Tell me measured TGI for "Oc1ccc(O)c(CNc2ccccc2)c1" please.
Reply: > 100 µM

Ask: Let me know recorded TGI for "CC(C)OC(=O)[C@@H](O)[C@H](CO)C1=CC([Si](C)(C)c2ccccc2)=CON1" , thanks.
Reply: > 100 µM

Ask: Return reported TGI. Input molecule: CC1CCc2sc3[nH]c(=S)n(-c4ccccc4)c(=O)c3c2C1 (stereo not given)
Reply: > 100 µM

Ask: State its TGI: C=CCCCCCCCCCOC1C=CC(OC(C)=O)C(COC(C)=O)O1 (stereo not given)
Reply: 17.4 µM

Ask: Hello, please tell me recorded TGI for this one: "C[C@H](N)C(=O)N1C[C@H](CCCB(O)O)[C@](N)(C(=O)O)C1"
Reply: > 100 µM

Ask: Report TGI for c1ccc2c(c1)CC1COc3ccccc3C1O2 (stereo not given)
Reply: > 100 µM

====

Here, each record is paired with measured TGI data.
# Tested on: OVCAR-3 ovarian
# Test Protocol: NCI tumour cell line growth inhibition, 48 h
Express the result in µM but write the number alone.

Known results for molecules:
>>> numeric_value("Fc1ccc2[nH]cc(SSc3c[nH]c4ccc(F)cc34)c2c1")
18.3
>>> numeric_value("Clc1nc(Cl)c(CBr)c(Cl)n1")
13.3
>>> numeric_value("C#CCn1c(=O)c(Cl)cn(/C(=C/C(=O)OCC)C(=O)OCC)c1=O")
11.7
>>> numeric_value("O=c1cc(N=Nc2ccc(Cl)cc2)[nH]c(=O)[nH]1")
9.53

Let's switch to this molecule now.
Ask: Input "Oc1ccc(C#CCOc2ccccc2)cc1CNCCN(Cc1ccccn1)Cc1ccccn1" , output reported TGI.
Reply: 3.04

====

# System: SF-295 CNS
# Test Protocol: NCI tumour cell line growth inhibition, 48 h
Measure: TGI

As a guide, the following entries are already answered.
>>> result("CC(C)c1ccc(NC(=S)NC(=O)c2ccccc2)cc1")
"32.5 µM"
>>> result("CC(C)(C)[C@H]1CCC2(OCCO2)[C@](O)(CCCO)C1")
"> 100 µM"
>>> result("NC1(C(=O)O)CCCC1")
"> 625 µM"
>>> result("COc1ccc(-c2c(N)[n+]([O-])c3ccccc3[n+]2[O-])cc1OC")
"> 100 µM"
>>> result("C#CC(O)/C=C/C(O)CCCC(O)CC#CC(O)C#CC(O)CCCC(O)/C=C/CCCC(=O)CCCCCCCCCCCCCCCC(O)C(O)C#CC(=O)O (stereo unspecified)")
"> 50 µM"
>>> result("CC(=O)O[C@H]1C[C@H]2C(=S)Nc3ccccc3C(=S)N2C1")
"> 100 µM"
>>> result("COc1ccc(Oc2nc(C#CC(C)(C)O)nc(Oc3ccc(OC)cc3)n2)cc1")
"31.2 µM"
>>> result("CSCCC(NC(=O)OCc1ccccc1)NC(=O)OCc1ccccc1")
"> 100 µM"

Ask: GET TGI | system: SF-295 CNS | item: "Cc1nc2ccccc2n1Cc1nnc(N)o1"
Reply: > 100 µM

Ask: For SF-295 CNS, give TGI of the listed compound: "Clc1c(C(Cl)(Cl)Cl)nsc1N1CCCCC1"
Reply: 66.8 µM

Ask: Please tell me the measured TGI for "Cc1cc(N(CCCl)CCCl)ccc1/C=N/NC(=O)Cc1cc(=O)oc2cc(O)ccc12" ; system: SF-295 CNS.
Reply: 50.8 µM

====

# Test system: T-47D breast
# Test Protocol: NCI tumour cell line growth inhibition, 48 h
Measure: TGI

Before answering, review these 3 worked examples.
>>> result("COc1ccc(OC)c2c(=S)c3ccccc3[nH]c12")
"> 100 µM"
>>> result("O=[N+]([O-])c1ccc2nc3ccccc3cc2c1")
"15.4 µM"
>>> result("CC(=O)O[C@H]1C[C@H]2C(=S)Nc3ccccc3C(=S)N2C1")
"> 100 µM"

Ask: Provide one value: measured TGI of "c1ccc(-c2cc(-c3cccs3)c(-c3cccs3)o2)cc1"
Reply: > 100 µM

Ask: Hello, please tell me recorded TGI for this one: "Oc1ccc(O)c(CNc2ccccc2)c1"
Reply: 37.9 µM

Ask: Give the reported value of TGI for this record: "Cc1ccc(S(=O)(=O)N2CCNCCN(S(=O)(=O)c3ccc(C)cc3)CCN(S(=O)(=O)c3ccc(C)cc3)CC2)cc1"
Reply: > 100 µM

====

# System: IGROV1 ovarian
# Test Protocol: NCI tumour cell line growth inhibition, 48 h
Measure: TGI

Record excerpt, results attached:
>>> result("COc1ccc(-c2c(N)[n+]([O-])c3ccccc3[n+]2[O-])cc1OC")
"> 100 µM"
>>> result("CC1C(=O)O[C@H]2C1CC[C@@]1(C)[C@H](O)CC[C@@]13C[C@]2(O)OO3 (stereo not given in full)")
"> 100 µM"
>>> result("COc1ccc(/C=N/NC(=O)c2cnc3[nH]c(=O)n(C)c(=O)c3c2)cc1")
"> 100 µM"
>>> result("CC1(C)CCC(=O)NC1CC(=O)CC1NC(=O)CCC1(C)C (stereo not given)")
"> 100 µM"
>>> result("CCNCCCn1c2c(c3ccc([N+](=O)[O-])cc3c1=O)C(=O)c1cc(OC)cnc1-2")
"1.45 µM"

Ask: Give a short answer stating reported TGI for "Oc1ccc(O)c(CNc2ccccc2)c1" .
Reply: 33.4 µM
